Test Target: filamentous actin (F-actin) from rabbit skeletal muscle (rabbit, UniProt P68135 1-377)
Procedure Details: BLI; F-actin immobilised on Streptavidin (SA) biosensors through LAbio peptide; αcat-ABD in solution at various concentrations; 26 °C, Octet384; 2 mM Tris-HCl pH 8.0, 0.2 mM ATP, 0.5 mM DTT, 0.1 mM CaCl2, 50 mM KCl, 2 mM MgCl2, 0.1% BSA, 0.02% Tween-20; 2:1 heterogeneous ligand model
Experimental Parameters: both partners purified
koff2 (2:1 heterogeneous ligand model) values by entry
// return numeric value only (unit: s⁻¹, not printed)

αEcat-ABD V796A (domain or fragment, source: E. coli BL21-CodonPlus, purified (glutathione-sepharose, thrombin cleavage, Superdex 75); not shown: GST, N-terminal, cleaved) SRTSVQTEDDQLIAGQSARAIMAQLPQEQKAKIAEQVASFQEEKSKLDAEVSKWDDSGNDIIVLAKQMCMIMMEMTDFTRGKGPLKNTSDVISAAKKIAEAGSRMDKLGRTIADHCPDSACKQDLLAYLQRIALYCHQLNICSKAKAEVQNLGGELVVSGVDSAMSLIQAAKNLMNAVVQTVKASYVASTKYQKSQGMASLNLPAVSWKMKAPEKKPLVKREKQDETQTKIKRASQKKHVNPVQALSEFKAMDSI: 0.0125

Noted for αEcat-ABD I792A (domain or fragment, source: E. coli BL21-CodonPlus, purified (glutathione-sepharose, thrombin cleavage, Superdex 75); not shown: GST, N-terminal, cleaved) SRTSVQTEDDQLIAGQSARAIMAQLPQEQKAKIAEQVASFQEEKSKLDAEVSKWDDSGNDIIVLAKQMCMIMMEMTDFTRGKGPLKNTSDVISAAKKIAEAGSRMDKLGRTIADHCPDSACKQDLLAYLQRIALYCHQLNACSKVKAEVQNLGGELVVSGVDSAMSLIQAAKNLMNAVVQTVKASYVASTKYQKSQGMASLNLPAVSWKMKAPEKKPLVKREKQDETQTKIKRASQKKHVNPVQALSEFKAMDSI : its koff2 (2:1 heterogeneous ligand model) reads 0.00881

Noted for αEcat-ABD L785A (domain or fragment, source: E. coli BL21-CodonPlus, purified (glutathione-sepharose, thrombin cleavage, Superdex 75); not shown: GST, N-terminal, cleaved) SRTSVQTEDDQLIAGQSARAIMAQLPQEQKAKIAEQVASFQEEKSKLDAEVSKWDDSGNDIIVLAKQMCMIMMEMTDFTRGKGPLKNTSDVISAAKKIAEAGSRMDKLGRTIADHCPDSACKQDLLAYLQRIAAYCHQLNICSKVKAEVQNLGGELVVSGVDSAMSLIQAAKNLMNAVVQTVKASYVASTKYQKSQGMASLNLPAVSWKMKAPEKKPLVKREKQDETQTKIKRASQKKHVNPVQALSEFKAMDSI : its koff2 (2:1 heterogeneous ligand model) reads 0.0107

Noted for αEcat-ABD 3A (L785A, I792A and V796A together) (domain or fragment, source: E. coli BL21-CodonPlus, purified (glutathione-sepharose, thrombin cleavage, Superdex 75); not shown: GST, N-terminal, cleaved) SRTSVQTEDDQLIAGQSARAIMAQLPQEQKAKIAEQVASFQEEKSKLDAEVSKWDDSGNDIIVLAKQMCMIMMEMTDFTRGKGPLKNTSDVISAAKKIAEAGSRMDKLGRTIADHCPDSACKQDLLAYLQRIAAYCHQLNACSKAKAEVQNLGGELVVSGVDSAMSLIQAAKNLMNAVVQTVKASYVASTKYQKSQGMASLNLPAVSWKMKAPEKKPLVKREKQDETQTKIKRASQKKHVNPVQALSEFKAMDSI : its koff2 (2:1 heterogeneous ligand model) reads 0.00849

Noted for αE-catenin actin-binding domain, wild type (αEcat-ABD-WT; residues 652-906) (domain or fragment, source: E. coli BL21-CodonPlus, purified (glutathione-sepharose, thrombin cleavage, Superdex 75); not shown: GST, N-terminal, cleaved) SRTSVQTEDDQLIAGQSARAIMAQLPQEQKAKIAEQVASFQEEKSKLDAEVSKWDDSGNDIIVLAKQMCMIMMEMTDFTRGKGPLKNTSDVISAAKKIAEAGSRMDKLGRTIADHCPDSACKQDLLAYLQRIALYCHQLNICSKVKAEVQNLGGELVVSGVDSAMSLIQAAKNLMNAVVQTVKASYVASTKYQKSQGMASLNLPAVSWKMKAPEKKPLVKREKQDETQTKIKRASQKKHVNPVQALSEFKAMDSI : its koff2 (2:1 heterogeneous ligand model) reads 0.00964

Noted for αEcat-ABD V714A (domain or fragment, source: E. coli BL21-CodonPlus, purified (glutathione-sepharose, thrombin cleavage, Superdex 75); not shown: GST, N-terminal, cleaved) SRTSVQTEDDQLIAGQSARAIMAQLPQEQKAKIAEQVASFQEEKSKLDAEVSKWDDSGNDIIALAKQMCMIMMEMTDFTRGKGPLKNTSDVISAAKKIAEAGSRMDKLGRTIADHCPDSACKQDLLAYLQRIALYCHQLNICSKVKAEVQNLGGELVVSGVDSAMSLIQAAKNLMNAVVQTVKASYVASTKYQKSQGMASLNLPAVSWKMKAPEKKPLVKREKQDETQTKIKRASQKKHVNPVQALSEFKAMDSI : its koff2 (2:1 heterogeneous ligand model) reads 0.0135
